- SYSTEM_NAME: human alpha 7-wt nAChR (Homo sapiens, UniProt P36544)
- Construct: expressed in transfected cells
- Sequence (P36544 23-502): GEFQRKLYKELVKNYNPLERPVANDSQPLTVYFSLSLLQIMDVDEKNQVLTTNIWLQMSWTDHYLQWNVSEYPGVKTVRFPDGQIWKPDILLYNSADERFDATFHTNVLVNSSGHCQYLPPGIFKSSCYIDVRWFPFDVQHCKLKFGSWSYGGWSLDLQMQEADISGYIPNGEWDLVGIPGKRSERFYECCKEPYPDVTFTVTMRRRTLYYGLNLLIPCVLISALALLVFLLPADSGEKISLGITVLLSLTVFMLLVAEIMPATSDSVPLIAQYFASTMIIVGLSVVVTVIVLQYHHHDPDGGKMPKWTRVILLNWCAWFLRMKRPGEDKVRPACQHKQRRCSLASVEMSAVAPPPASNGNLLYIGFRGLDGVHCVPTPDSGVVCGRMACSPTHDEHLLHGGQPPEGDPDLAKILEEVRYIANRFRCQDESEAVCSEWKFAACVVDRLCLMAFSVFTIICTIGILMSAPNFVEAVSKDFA
- ASSAY_EXPLANATION: Ca2+ flux imaging (FDSS) (protocol B)
- Type: cell-based
PROPERTY: EC50 (nM)
Only the number, expressed in nM, is required.

**Query** Request body: readout EC50, system human alpha 7-wt nAChR (Homo sapiens, UniProt P36544), query Cc1cc(-c2ccc(N3C[C@@H](C)O[C@@H](C)C3)cc2CNC(=O)c2cc(C)on2)cc(C)n1 . Return the value.
**Result** 457

* * *

- SYSTEM_NAME: human alpha 7-wt nAChR (Homo sapiens, UniProt P36544)
- Construct: expressed in transfected cells
- ASSAY_EXPLANATION: Ca2+ flux imaging (FDSS) (protocol B)
- Type: cell-based
- MEASUREMENT_PARAMETERS: Ca2+ assay as described in D.1; read-out: pEC50 (converted)
PROPERTY: EC50 (nM)
State just the number; it will be interpreted in nM.

**Query** Return reported EC50; argument: Cc1cc(-c2ccc(N3CC4CCC(C3)O4)cc2CNC(=O)C2CC2)cc(C)n1
**Result** 631

**Query** Entry Cc1cc(-c2c(F)cc(N3CCOC(C)C3)cc2CNC(=O)C(C)C)cc(C)n1 (stereo not drawn) please
**Result** 89.1

**Query** Similarly, Cc1cc(-c2ccc(N3C[C@@H](C)O[C@@H](C)C3)c(F)c2CNC(=O)CC2CCC2)cc(C)n1 ?
**Result** 138

**Query** Now the same for Cc1cc(-c2c(F)cc(N3C[C@@H](C)O[C@@H](C)C3)cc2CNC(=O)CCC(F)(F)F)cc(C)n1
**Result** 5.37

**Query** Query Cc1cc(-c2cc(F)c(N3C[C@@H](C)O[C@@H](C)C3)cc2CNC(=O)CC2CC2)cc(C)n1 next
**Result** 263

**Query** Likewise for Cc1cc(-c2ccc(N3C[C@@H](C)O[C@@H](C)C3)c(F)c2CNC(=O)c2cccc(Cl)c2F)cc(C)n1 ?
**Result** 479

**Query** What do you have for Cc1cc(-c2c(F)cc(N3CCO[C@@H](C(F)(F)F)C3)cc2CNC(=O)CC2CC2)cc(C)n1 ?
**Result** 9.12

**Query** Try this molecule too: Cc1cc(-c2ccc(N3C[C@@H](C)O[C@@H](C)C3)cc2CNC(=O)c2conc2C)cc(C)n1
**Result** 45.7

**Query** Now the same for Cc1cc(-c2ccc(C3C[C@@H](C)O[C@@H](C)C3)c(F)c2CNC(=O)CC2CC2)cc(C)n1 (relative stereo)
**Result** 457

**Query** // repeat for Cc1cc(-c2c(F)cc(N3C[C@@H](C)O[C@@H](C)C3)cc2CNC(=O)CC2CCC2)cc(C)n1 and report
**Result** 6.17

**Query** Now consider Cc1cc(-c2ccc(N3C[C@@H](C)O[C@@H](C)C3)c(F)c2CNC(=O)C(C)C2CC2)cc(C)n1 (mixture of isomers) .
**Result** 479

**Query** And the next one, Cc1cc(-c2ccc(N3C[C@H](C(F)(F)F)C[C@H](C(F)(F)F)C3)cc2CNC(=O)CC2CC2)cc(C)n1 ?
**Result** 16.2

**Query** What do we get for Cc1cc(-c2ccc(N3CCOCC3)cc2CNC(=O)c2conc2C)cc(C)n1 ?
**Result** 457

**Query** Would you kindly repeat that for Cc1cc(-c2c(F)cc(N3CCO[C@@H](C(F)(F)F)C3)cc2CNC(=O)C2CC2)cc(C)n1 ?
**Result** 33.1

**Query** Entry Cc1cc(-c2ccc(N3CCO[C@@H](C(F)(F)F)C3)c(F)c2CNC(=O)CC(C)C)cc(C)n1 please
**Result** 14.8
